The reported numbers originate from PubChem BioAssay (NCI).

# Tested on: SK-OV-3 ovarian
# method.summary: NCI-60 one-dose screen, 48 h
# test.context: 10 µM unless noted
# Method: Growth inhibition of the SK-OV-3 human tumor cell line is measured as a screen for anti-cancer activity. Cells are grown in 96 well plates and exposed to the test compound for 48 hours. Compounds are tested at a single concentration, which is 10^-5 M for most compounds. The reported endpoint is percent growth (GI% or GIPRCNT), where numbers from 0 - 100% represent growth inhibition, and numbers from -100% - 0 represent cell death. For example, a value of 40 represents 60% growth inhibition. […]
Compounds without any hit were thinned out: in the full panel of roughly 83,000, 20% have a hit. Activity calls are given as the source filed them. How the source made its calls: active means growth percent below 10; inactive means the rest.
Possible outcomes: active, inactive

{"compound": "C=C(CO)[C@@H]1CC[C@]2(COC3CCCCO3)CC[C@]3(C)[C@H](CC[C@@H]4[C@@]5(C)C=C(C=O)C(=O)C(C)(C)[C@@H]5CC[C@]43C)[C@@H]12 (stereo not given in full)", "measured.target": "SK-OV-3 ovarian", "qualitative.label": "active"}
{"compound": "COc1cccc2c(N=NC(=O)c3ccc(S(N)(=O)=O)cc3)c(O)[nH]c12", "measured.target": "SK-OV-3 ovarian", "qualitative.label": "inactive"}
{"compound": "O=S(=O)(c1ccccc1)N1CCCN(c2nc(-c3ccccc3)nc3nc(-c4ccccc4)oc23)CC1", "measured.target": "SK-OV-3 ovarian", "qualitative.label": "inactive"}
{"compound": "O=C(O)c1cn(C2CC2)c2cc(N3CCN(C(=O)N/N=C/c4ccccc4)CC3)c(F)cc2c1=O", "measured.target": "SK-OV-3 ovarian", "qualitative.label": "inactive"}
{"compound": "CCSC1=CC(=O)c2ccccc2C1=O", "measured.target": "SK-OV-3 ovarian", "qualitative.label": "inactive"}
{"compound": "Nc1c(C(=O)Nc2ccccn2)sc2nc3c(cc12)C(O)CCC3 (stereo not given)", "measured.target": "SK-OV-3 ovarian", "qualitative.label": "inactive"}
{"compound": "Nc1nc(C(=O)N/N=C/c2ccc(N3CCOCC3)cc2)nn1-c1ccc(S(N)(=O)=O)cc1", "measured.target": "SK-OV-3 ovarian", "qualitative.label": "inactive"}
{"compound": "O=C(Nc1ccccc1)c1sc(-c2ccccc2)cc1O", "measured.target": "SK-OV-3 ovarian", "qualitative.label": "inactive"}
{"compound": "CS(=O)(=O)Nc1cc(-c2ccc3ncnc(Nc4ccc5c(cnn5Cc5cccnc5)c4)c3c2)cnc1Cl", "measured.target": "SK-OV-3 ovarian", "qualitative.label": "inactive"}
{"compound": "COc1ncc2cc1NS(=O)(=O)c1cccc(c1)C(=O)NCC1=CC=C(S1)c1ncnc3c1SC2=C3C", "measured.target": "SK-OV-3 ovarian", "qualitative.label": "active"}
{"compound": "O=C(CN1C(=O)/C(=C/c2ccco2)SC1=S)NCCc1c[nH]c2ccc(F)cc12", "measured.target": "SK-OV-3 ovarian", "qualitative.label": "inactive"}
{"compound": "N#Cc1c(-c2ccccc2)nc2c(c(-c3ccccc3)nn2-c2ccccc2)c1-c1ccc(N2CCOCC2)cc1", "measured.target": "SK-OV-3 ovarian", "qualitative.label": "inactive"}
{"compound": "Clc1nn2c(Cn3cnc4c(NCc5ccccc5)ncnc43)nnc2c2ccccc12", "measured.target": "SK-OV-3 ovarian", "qualitative.label": "active"}
{"compound": "CC(C)C[C@@H](C(=O)N[C@H](C(=O)OC1CCCC1)c1ccccc1)[C@H](O)C(=O)NO", "measured.target": "SK-OV-3 ovarian", "qualitative.label": "inactive"}
{"compound": "CCOC(=O)/C=C/c1c(C)[nH]c(=O)[nH]c1=O", "measured.target": "SK-OV-3 ovarian", "qualitative.label": "inactive"}
{"compound": "COc1cccc(Nc2ccnc3[nH]c4ccc([N+](=O)[O-])cc4c23)c1", "measured.target": "SK-OV-3 ovarian", "qualitative.label": "inactive"}
{"compound": "COC(=O)/C=C1/SC(=Nc2cccc(Cl)c2)N(CCc2c[nH]c3ccc(O)cc23)C1=O", "measured.target": "SK-OV-3 ovarian", "qualitative.label": "inactive"}
{"compound": "CCCCCCCCNc1cc2c3c(c1)CCCN3CCC2", "measured.target": "SK-OV-3 ovarian", "qualitative.label": "inactive"}
{"compound": "Clc1ccc(-c2nc(-c3c[nH]c4ncccc34)cs2)cc1", "measured.target": "SK-OV-3 ovarian", "qualitative.label": "inactive"}
{"compound": "CN(C)c1ccc(/C=C2/C=C(c3ccccc3)OC2=O)cc1", "measured.target": "SK-OV-3 ovarian", "qualitative.label": "inactive"}

---

Listed compounds paired with reported growth
# System: BT-549 breast
# method.summary: NCI-60 one-dose screen, 48 h (100 = growth as untreated, 0 = no growth, -100 = all killed)
# test.context: 10 µM unless noted
This is part of a sample that, as a whole, favours compounds with a hit. Of some 83,000 tested, about 20% had one in any assay.

{"compound": "Cc1cc(C)c(-c2c(O)c(Br)c(-c3c(C)cc(C)c(Br)c3C)c(O)c2Br)c(C)c1Br", "measured.target": "BT-549 breast", "measure.unit": "%", "growth": 22.2}
{"compound": "CSCCC(NC(=O)c1ccccc1)C(=O)N/N=C1\\S/C(=C/c2ccc(Cl)cc2)C(=O)N1C (stereo not drawn)", "measured.target": "BT-549 breast", "measure.unit": "%", "growth": 87.3}
{"compound": "COc1ccc2nc3ccccc3c(NCc3ccccc3)c2c1", "measured.target": "BT-549 breast", "measure.unit": "%", "growth": 50.3}
{"compound": "CC(C)c1ccc(-n2c(=S)[nH]c3sc4c(c3c2=O)CCC(=O)C4)cc1", "measured.target": "BT-549 breast", "measure.unit": "%", "growth": 26.3}
{"compound": "CCOC(=O)c1c(-c2ccc(Cl)cc2)c(C#N)c2c(C#N)c(N)nn2c1N", "measured.target": "BT-549 breast", "measure.unit": "%", "growth": 68.5}
{"compound": "CC[C@H](CC[C@@H](C)[C@H]1CC[C@H]2[C@@H]3CC[C@@H]4CC(=O)/C(=C\\c5ccncc5)C[C@]4(C)[C@H]3CC[C@]12C)C(C)C", "measured.target": "BT-549 breast", "measure.unit": "%", "growth": 95.2}
{"compound": "O=C(Cn1nnc([N+](=O)[O-])n1)c1ccccc1", "measured.target": "BT-549 breast", "measure.unit": "%", "growth": 113}
{"compound": "C[C@@H](CO)[C@@H]1CC[C@]2(C(=O)N3CCN(C)CC3)CC[C@]3(C)[C@H](CC[C@@H]4[C@@]5(C)CC[C@H](O)C(C)(C)[C@@H]5CC[C@]43C)[C@@H]12", "measured.target": "BT-549 breast", "measure.unit": "%", "growth": 75.8}

---

# Tested on: RXF 393 renal
# method.summary: NCI-60 one-dose screen, 48 h (100 = growth as untreated, 0 = no growth, -100 = all killed)
# test.context: 10 µM unless noted
Compounds without any hit were thinned out: in the full panel of roughly 83,000, 20% have a hit.

{"molecule": "Cn1cc(C(=O)c2nc(-c3c[nH]c4ccc(Br)cc34)no2)c2cc(Br)ccc21", "growth (%)": 96.4}
{"molecule": "COc1cc(C2Cc3ncccc3-c3[nH]c(=O)c4cccnc4c32)cc(OC)c1OC (stereo not given)", "growth (%)": 8.5}
{"molecule": "CCOC(=O)C/C(=N\\Nc1cc(=O)[nH]c2ccc(Cl)cc12)C(=O)OCC", "growth (%)": 110}
{"molecule": "CCCCCCNc1nc(NCCCCCC)c2[nH]c(NCCCCCC)nc2n1", "growth (%)": 81}
{"molecule": "CC(C)[C@@]12C[C@@H](OC(=O)COC(=O)c3ccccc3)[C@@](C)(O1)[C@@H]1CC[C@@H](C)[C@H]1[C@@H]2OC(=O)/C=C/c1ccccc1", "growth (%)": -2.22}
{"molecule": "N#Cc1c(-c2cccc([N+](=O)[O-])c2)cc(-c2ccc(Nc3nc(Nc4ccc(F)cc4)nc(Nc4ccc(F)cc4)n3)cc2)nc1N", "growth (%)": -10.3}
{"molecule": "C=NNc1ccccc1", "growth (%)": 105}
{"molecule": "c1ccc2cc(Cn3c[n+](Cc4ccc5ccccc5c4)c4ccccc43)ccc2c1", "growth (%)": -56.5}
{"molecule": "CCOC(=O)c1c(C)nc2c(c1N)CC(=O)N2Cc1cc(OC)c(OC)c(OC)c1", "growth (%)": 73.2}
{"molecule": "CC(C)(C)C(=O)/C=C/c1ccc([N+](=O)[O-])cc1", "growth (%)": 93.7}

---

# System: COLO 205 colon
# method.summary: NCI-60 one-dose screen, 48 h
# test.context: 10 µM unless noted
This is part of a sample that, as a whole, favours compounds with a hit. Of some 83,000 tested, about 20% had one in any assay. Activity calls are given as the source filed them. Rule for the calls: active = growth percent below 10; inactive = the rest.
Possible outcomes: active, inactive

{"compound": "CCCCCCCCn1ccc2cc(NC(=O)Cn3cc(CN4CCC(C)CC4)nn3)ccc21", "measured.target": "COLO 205 colon", "qualitative.label": "active"}
{"compound": "CCCCCCCC/C=C\\CCCCCCCCOc1ccc(CC(=O)NCC[N+](C)(C)C)cc1", "measured.target": "COLO 205 colon", "qualitative.label": "active"}
{"compound": "N/C(=N\\c1nc2ccccc2s1)NC(=NC1CCCCC1)NC1CCCCC1", "measured.target": "COLO 205 colon", "qualitative.label": "active"}
{"compound": "CN1CCN(Cc2ccc(NC(=O)c3cncc(C#Cc4cncc5ncccc45)c3)cc2C(F)(F)F)CC1", "measured.target": "COLO 205 colon", "qualitative.label": "active"}
{"compound": "CCCCCCCCNc1cc2c3c(c1)CCCN3CCC2", "measured.target": "COLO 205 colon", "qualitative.label": "active"}
{"compound": "O=C1OCC2=C1C(c1cccc(F)c1)c1cc3c(cc1N2CCO)OCO3 (stereo not given)", "measured.target": "COLO 205 colon", "qualitative.label": "active"}
{"compound": "CCCNc1nc2ccccc2c2c(=O)c3cccc(Cl)c3sc12", "measured.target": "COLO 205 colon", "qualitative.label": "inactive"}
{"compound": "COc1cccc(/C=C/C(=O)c2cc3c(N)c(C(=O)Nc4ccccc4C)sc3nc2C)c1", "measured.target": "COLO 205 colon", "qualitative.label": "inactive"}
{"compound": "COc1cc(C(=O)/C=C/c2ccc(N3CCN(C)CC3)cc2)cc(OC)c1OC", "measured.target": "COLO 205 colon", "qualitative.label": "inactive"}
{"compound": "O=C1/C(=C/c2ccc(C(F)(F)F)cc2)COc2ccc(O)cc21", "measured.target": "COLO 205 colon", "qualitative.label": "inactive"}
